Test: Terminal half life in C57BL/6 mouse at 100 mg/kg, po or 10 mg/kg, iv
Assay type: ADME, organism-based
Details: in vivo, read-out: beta t1/2 (converted)
experimental.readout: half-life (min)
A number alone suffices; assume min.

| molecule | endpoint.unit | half-life |
| --- | --- | --- |
| COc1cc(C(=O)Nc2ccccc2-c2cn3c(CN4CCNCC4)csc3n2)cc(OC)c1OC | min | 360 |

Form field: reported half-life of O=C(Nc1ccccc1-c1cn2c(CN3CCNCC3)csc2n1)c1cnc2ccccc2n1
300

###

Assay: Terminal half life in Sprague-Dawley rat at 100 mg/kg, po or 10 mg/kg, iv
Assay type: ADME, organism-based
Details: in vivo, read-out: beta t1/2 (converted)
experimental.readout: half-life (h)
A number alone suffices; assume h.

Form field: reported half-life of O=C(Nc1ccccc1-c1cn2c(CN3CCNCC3)csc2n1)c1cnc2ccccc2n1
8.4

###

Measured solubility of individual entries
Test: Solubility in water
Assay type: physicochemical

| molecule | solubility |
| --- | --- |
| COc1cc(C(=O)Nc2ccccc2-c2cn3ccsc3n2)cc(OC)c1OC | < 0.1 mg/mL |

Form field: reported solubility of COc1cc(C(=O)Nc2ccccc2-c2cn3c(CN4CCNCC4)csc3n2)cc(OC)c1OC
> 10 mg/mL

###

Experiment: Cmax in Sprague-Dawley rat at 100 mg/kg, po or 10 mg/kg, iv
Format: ADME, organism-based
Settings: in vivo
experimental.readout: Cmax (nM)
A number alone suffices; assume nM.

Form field: reported Cmax of O=C(Nc1ccccc1-c1cn2c(CN3CCNCC3)csc2n1)c1cnc2ccccc2n1
320

###

Measured half-life of individual entries
Experiment: Metabolic stability in mouse microsomes assessed as half life
Type: ADME, Microsome

| molecule | half-life |
| --- | --- |
| COc1cc(C(=O)Nc2ccccc2-c2cn3c(CN4CCNCC4)csc3n2)cc(OC)c1OC | > 300 min |

API: the following record is the query input.
Form field: reported half-life of COc1cc(C(=O)Nc2ccccc2-c2cn3ccsc3n2)cc(OC)c1OC
5 min

###

Measured Activity of individual entries
Target: NAD-dependent protein deacetylase sirtuin-1 (Homo sapiens) (UniProt Q96EB6)
Sequence (Q96EB6 whole entry): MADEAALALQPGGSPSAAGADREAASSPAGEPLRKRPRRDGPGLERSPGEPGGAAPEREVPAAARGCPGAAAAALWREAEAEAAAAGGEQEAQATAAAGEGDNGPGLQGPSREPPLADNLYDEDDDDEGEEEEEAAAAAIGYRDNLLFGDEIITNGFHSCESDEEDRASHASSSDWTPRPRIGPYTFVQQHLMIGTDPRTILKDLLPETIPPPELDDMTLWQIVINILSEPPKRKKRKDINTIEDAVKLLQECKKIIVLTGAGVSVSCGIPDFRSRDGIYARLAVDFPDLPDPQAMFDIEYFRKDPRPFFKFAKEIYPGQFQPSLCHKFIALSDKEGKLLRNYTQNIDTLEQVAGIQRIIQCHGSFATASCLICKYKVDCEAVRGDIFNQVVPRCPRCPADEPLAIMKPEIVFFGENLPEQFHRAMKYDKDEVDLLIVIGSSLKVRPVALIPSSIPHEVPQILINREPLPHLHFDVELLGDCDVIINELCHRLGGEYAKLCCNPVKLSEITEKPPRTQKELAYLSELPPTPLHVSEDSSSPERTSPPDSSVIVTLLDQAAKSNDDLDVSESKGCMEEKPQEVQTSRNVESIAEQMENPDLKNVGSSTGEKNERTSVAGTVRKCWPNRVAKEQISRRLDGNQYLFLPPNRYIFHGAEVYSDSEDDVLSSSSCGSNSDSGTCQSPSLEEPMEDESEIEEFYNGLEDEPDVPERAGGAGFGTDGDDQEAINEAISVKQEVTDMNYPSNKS
Assay: Activation of human SIRT1 expressed in Escherichia coli BL21Start assessed as concentration required to increase 50% enzyme activity by mass spectrometry assay

Given the entry COc1cccc(C(=O)Nc2ccccc2-c2cn3c(CN4CCNCC4)csc3n2)c1 , what Activity was observed with NAD-dependent protein deacetylase sirtuin-1 (Homo sapiens) (UniProt Q96EB6)?
3.7 µM

Given the entry O=C(Cc1ccccc1)Nc1ccccc1-c1cn2c(CN3CCNCC3)csc2n1 , what Activity was observed with NAD-dependent protein deacetylase sirtuin-1 (Homo sapiens) (UniProt Q96EB6)?
14 µM

Given the entry O=C(Nc1ccccc1-c1cn2c(CN3CCNCC3)csc2n1)c1cc2ccccc2o1 , what Activity was observed with NAD-dependent protein deacetylase sirtuin-1 (Homo sapiens) (UniProt Q96EB6)?
0.61 µM

Given the entry COc1cc(C(=O)Nc2ccccc2-c2cn3ccsc3n2)cc(OC)c1OC , what Activity was observed with NAD-dependent protein deacetylase sirtuin-1 (Homo sapiens) (UniProt Q96EB6)?
2.5 µM

###

Target: UniProt:Q96EB6
Test: Activation of human SIRT1 expressed in Escherichia coli BL21Start assessed as maximum activation of enzyme activity by mass spectrometry assay
Measured Activity of individual entries

Field: example entries. Status: answers known.
| molecule | Activity |
| --- | --- |
| COc1cc(C(=O)Nc2cccc(-c3nc4ncccc4o3)c2)cc(OC)c1OC | 388% |
| COc1cc(C(=O)Nc2ccccc2-c2cn3c(CN4CCNCC4)csc3n2)cc(OC)c1OC | 271% |
| O=C(Nc1ccccc1-c1cn2c(CN3CCNCC3)csc2n1)c1cccc(SC(F)F)c1 | 808% |

Form field: reported Activity of O=C(Nc1ccccc1-c1cn2c(CN3CCNCC3)csc2n1)C1CCCC1
383%

Form field: reported Activity of O=C(Nc1ccccc1-c1cn2c(CN3CCNCC3)csc2n1)c1ccc2c(c1)OCO2
332%
